Readings of EC50 (read off the curve) for the listed binders
test target: T1, recombinant rhesus OX40-his (Sino Biological, Cat#:90846-C08H) (rhesus monkey, UniProt P43489 29-214 (human entry))
T1 construct: bought protein; also called monkey OX40-his; rhOX40-his; not shown: His tag
T1 chain: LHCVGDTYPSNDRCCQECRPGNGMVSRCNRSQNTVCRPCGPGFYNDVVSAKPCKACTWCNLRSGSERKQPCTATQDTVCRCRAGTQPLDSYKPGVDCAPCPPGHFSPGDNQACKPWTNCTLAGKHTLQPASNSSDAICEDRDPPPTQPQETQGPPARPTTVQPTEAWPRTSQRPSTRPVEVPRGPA
experiment: ELISA on coated rhesus OX40-His, OD450

Worked cases, EC50 (read off the curve) given:
| binder | EC50 (read off the curve) |
| --- | --- |
| 71H8-VH3VL3 (antibody, human IgG1, kappa, V domains shown, humanized; also called 71H8-H3L3) VH: QVQLVQSGAEVKKPGASVKVSCKVSGYTFTSYWITWVRQRPGQGLEWIGDIYPGSGSTNQNEKFKSRVTLTVDTSTDTAYMELSSLRSEDTAVYYCATLRPYYFVYWGQGTLVTVSS VL: DIQMTQSPSSLSASVGDRVTITCRASQDISNYLNWYQQKPGKTVKLLIYYTSRLLSGVPSRFSGSGSGTDYTLTISSLQPEDFATYFCQQGNTLPLTFGQGTRLEIKR | ~3 ng/mL |
| 71H8-VH2VL3 (antibody, human IgG1, kappa, V domains shown, humanized; also called 71H8-H2L3; 71H8H2L3) VH: QVQLVQSGAEVKKPGASVKVSCKVSGYTFTSYWITWVRQRPGKGLEWMGDIYPGSGSTNQNEKFKSRVTMTVDTSTDTAYMELSSLRSEDTAVYYCATLRPYYFVYWGQGTLVTVSS VL: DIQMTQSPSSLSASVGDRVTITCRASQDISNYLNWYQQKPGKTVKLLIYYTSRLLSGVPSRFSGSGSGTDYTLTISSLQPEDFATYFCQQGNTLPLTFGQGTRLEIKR | ~3 ng/mL |

Query: EC50 (read off the curve); subject: 71H8-VH0VL0 (antibody, human IgG1, kappa, V domains shown, humanized; also called 71H8-H0L0) VH: QVQLVQSGAEVKKPGASVKVSCKVSGDTFTSYWITWVRQAPGKGLEWMGDIYPGSGSTNQNEKFKSRVTMTEDTSTDTAYMELSSLRSEDTAVYYCATLRPYYFVYWGQGTLVTVSS VL: DIQMTQSPSSLSASVGDRVTITCRASQDISNYLNWYQQKPGKAPKLLIYYTSRLLSGVPSRFSGSGSGTDFTLTISSLQPEDFATYYCQQGNTLPLTFGQGTRLEIKR
Response: ~3 ng/mL
